apparent KD of MS2 coat protein listing for selected sequences.
System: MS2 coat protein
Test: apparent KD of MS2 coat protein; designed switch direction (-1 OFF switch, 1 ON switch): 1; higher = weaker reporter binding
Details: input ligand: none
Expressed in µM, but write only the number.

- sequence-code: "GGUAGGUUACUACCAAUCUACAUGAGGAUCACCCAUGUGUGGAAGGAUAUGGUACCUAUUUGGUACCAGAAGGUCCAAUUAAUU [Fiskers NG3ss - 7] (Eterna round: R96, puzzle: Same State NG 3)"
  quantitative-readout: 0.153
- sequence-code: "UUAAUGAAGUAAGGAUAUACAUGAGGAUCACUCGUAGAAGGUACUAUACAUGAGGAUCACCCAUGUGCCGGUCAGAAGACUGGA [Mat - Same State NG 1 - JL mod - D5] (Eterna round: R96, puzzle: Same State NG 1)"
  quantitative-readout: 0.723
- sequence-code: "ACAUGAGACCAAGGAUAUGUUGUACCUACAUGUGACAUGAGGAUCACCCAUGUGGUAAGUAUGAGGCAGAAGGUGGAGAUAUGU [Equivalence 26 - Jieux - Same State NG 2] (Eterna round: R96, puzzle: Same State NG 2)"
  quantitative-readout: 0.0593

Next:
Incoming: Please give the measured apparent KD of MS2 coat protein for this sequence: GCCAACACAUGAGGAUAUGGCACCUUAUUGGUGCCAGAAGGCAUGUGAAUUCACAUGAGGAUCACCCAUGUAUUAUAGUUGGCA [Fiskers NG1ss - 19] (Eterna round: R96, puzzle: Same State NG 1)
Outgoing: 0.121

###

System: MS2 coat protein
Assay: apparent KD of MS2 coat protein; designed switch direction (-1 OFF switch, 1 ON switch): 1; higher = weaker reporter binding
Conditions: Eterna round: R95; input ligand: microRNA oligo, concentration not stated
Use Satisfied when the recorded apparent KD of MS2 coat protein is no lower than 30 nM; use Not satisfied when it is lower.

- sequence-code: "CCGUGGUAACAUGAGGAUCACCCAUGUACAAGCUUUUUGCUCGUUGGAUCCGGCGCGCCCAUUAUGGGCGCGCCGGA [Nishu_Seq2] (puzzle: Sensor for hsa-mir-208a version 2)"
  assigned-label: "Not satisfied"

Incoming: # bool: apparent KD of MS2 coat protein of AGUCCAGCCUGAGCUGGACAAAAGCAUGUACAUGAGGAUCACCCAUGUUCAUGUACAAGCUUUUUGCUCGUCUUAUU [salish99_208a_r3_047] (puzzle: Sensor for hsa-mir-208a) >= 30 nM
Outgoing: Not satisfied

Incoming: Could you tell me if the measured apparent KD of MS2 coat protein of GGCAGGUGCAGGCUUGCUUGCACCUGGAAACAUGAGGAUCACCCAUGUUUGGGACAAGCUUUGCUCCUCGUCUUAUC [JL ViennaUCT Isusreraar mod 1] (puzzle: Sensor for hsa-mir-208a) reaches 30 nM or more?
Outgoing: Satisfied

Incoming: Would you say GUAUAACAUGAGGAUCACCCAUGUCAUCUAAGUCGAGGAUAUGGGAAUUAAUUAAUUAAACCAGAAGGCGAAAAUG [Mat - Same State 1 - D93] (puzzle: Same State 1) shows apparent KD of MS2 coat protein at minimum 30 nM?
Outgoing: Satisfied

Incoming: Reported apparent KD of MS2 coat protein reaches at least 30 nM for AUAAGGCAAGCUUUUUUCUCGUAGUGUAAACAUGAGGAUCACCCAUGUGCCCACCCUGGAUCUUUGGAUCGCGGAAC [Raxesori] (puzzle: Sensor for hsa-mir-208a) ?
Outgoing: Not satisfied

###

apparent KD of MS2 coat protein by entry:
Tested on: MS2 coat protein
Experiment: apparent KD of MS2 coat protein; designed switch direction (-1 OFF switch, 1 ON switch): 1; higher = weaker reporter binding
Conditions: input ligand: none
Write the answer as a number in nM, unit excluded.

Sample records with apparent KD of MS2 coat protein:
- sequence-code: "ACAUGAGAGGGAGGAUAUUUUGUACCUACAUGUGACAUGAGGAUCACCCAUGUGGUAAGUAUGAGAAAGAAGGCCCAGAUAUGU [Equivalence 18 - Jieux - Same State NG 2] (Eterna round: R96, puzzle: Same State NG 2)"
  apparent KD of MS2 coat protein [nM]: 27.4
- sequence-code: "AAGAUGGUUGUAGGAUAUCCACCACUGAAGGGUGGAGAAGGGCACUCCAACAUGAGGAUCACCCAUGUACUACAAGUAGCAUCG [Eternabot solution 26] (Eterna round: R96, puzzle: Same State NG 1)"
  apparent KD of MS2 coat protein [nM]: 240
- sequence-code: "GCUAGAAAUAAAGCCAACAUGAGGAUCACCCAUGUAUGUUGGCAGGAUAUCGUUUGCUUUGCAAACGAGAAGGGCCAAACUAGC [Mat - Same State NG 3 - JL Mod - D1] (Eterna round: R96, puzzle: Same State NG 3)"
  apparent KD of MS2 coat protein [nM]: 129

Incoming: Which value of apparent KD of MS2 coat protein has been reported for ACAUGAGGAUCACCCAUGUAGGCUCAGGAAACUGUGCCACAUGAGGAUAUGGAUCCUAAUUGGAUCCAGAAGGCAUGUAUUAUU [Fiskers NG3ss - 22] (Eterna round: R96, puzzle: Same State NG 3) in the records?
Outgoing: 66.1

###

Some sequences, each annotated with its measured apparent KD of MS2 coat protein.
Tested on: MS2 coat protein
Test: apparent KD of MS2 coat protein; higher = weaker reporter binding
Conditions: Eterna round: R107; input ligand: none
In your response, the unit should come after the numeric value.

Study these solved cases before continuing.
- sequence-code: "GAGACGUCGGGAAGGAGCGCAUCCAAACCACACAUGAGGAUCACCCAUGUAUAAAUAUGCAUGCAGGUAGGUCGCCCGGUGUCCA [Xegeisge]"
  study-target: "MS2 coat protein"
  parameter-measured: "apparent KD of MS2 coat protein"
  result: "85.7 nM"
- sequence-code: "ACAUUUAACUGAAGGAGCGUGAAUAACAUGAGGAUCACCCAUGUAACUUAGAUUCUUAUAUCACAGGUAGGUCGCAGACUAAUGA [JR_ExcArginiB_Sub012]"
  study-target: "MS2 coat protein"
  parameter-measured: "apparent KD of MS2 coat protein"
  result: "17 nM"
- sequence-code: "GGAUAGGACACGGCCGCCACUAGCUAGGAUACUAGCAACAUUUCCUCACUUGAGGAUCACCCAGGUAGGACCGGGUGUCCUAUCG"
  study-target: "MS2 coat protein"
  parameter-measured: "apparent KD of MS2 coat protein"
  result: "580 nM"
- sequence-code: "UUGUUGUUUGGAAGGAGCGUGUAAGAUUAAGAACAUGAGGAUCACCCAUGUUUUAAGGGAACACAGGUAGGUCGCCGGGUGGUGG [11.R]"
  study-target: "MS2 coat protein"
  parameter-measured: "apparent KD of MS2 coat protein"
  result: "13.9 nM"
- sequence-code: "ACAUGAGGGAUGGAUACCAGCGACAUGAGGAUCACCCAUGUAUGAGGAUCAGCCAUGUUAUGCCCUUGGCAGCCACGAACAUGAG [ACFMULLIN]"
  study-target: "MS2 coat protein"
  parameter-measured: "apparent KD of MS2 coat protein"
  result: "35.6 nM"

Now let's try a different one.
Incoming: Query the reported apparent KD of MS2 coat protein for MS2 coat protein; item: AAAACCUCACCUGAGGAACACCCAGGUGAUACCAGCCUGGAAACAGGCCCUUGGCAGCACCAGGUCAUCAAAGAUGACCAAAUAA [TheoAX 25 #OpenEnded #AlternativeMS2]
Outgoing: 22.7 nM

###

The sequences listed here are annotated with their apparent KD of MS2 coat protein.
Test system: MS2 coat protein
Assay: apparent KD of MS2 coat protein; designed switch direction (-1 OFF switch, 1 ON switch): 1; higher = weaker reporter binding
Settings: input ligand: FMN 200 uM
Respond with the bare value in nM.

Reference set (2 entries):
- sequence-code: "GGAAAGAGGUAAGGAUAUGCAUGGCUGGGACAUGAGGAUCACCCAUGUUGGAGAAGAAAUCUAGGGUAGAAGGUACAAGGAAGG [AK SSNG2-V2-10] (Eterna round: R96, puzzle: Same State NG 2)"
  apparent KD of MS2 coat protein / nM: 240
- sequence-code: "GGUAGGUUACUACCAGACAUGAGGAUCACCCAUGUAAGUGGGAAGGAUAUGGUACCUUUUAGGUACCAGAAGGUCCAUAUAUUC [JL SSNG3 1.44] (Eterna round: R96, puzzle: Same State NG 3)"
  apparent KD of MS2 coat protein / nM: 178

Incoming: # get_value(readout='apparent KD of MS2 coat protein', item= UGGCUCAGAGCAGGAUAUAUGUGGUCACAUGAGGAUCACCCAUGUCUCGAGCUUCGGCUCGAGGCAUAGAAGGGCUCUGAGCCA [SSNG2/5-B2] (Eterna round: R96, puzzle: Same State NG 2) )
Outgoing: 550

Incoming: Return reported apparent KD of MS2 coat protein; argument: GAAAAACAUGAGGAUCACCCAUGUGAGAAUAUGGGAGGAUAUUCAAAGACGAAAGUCAAAGAAGAAGGCCUAAAAG [Mat - Same State 1 - Eli mod - 37] (Eterna round: R96, puzzle: Same State 1)
Outgoing: 33.4

Incoming: Recorded apparent KD of MS2 coat protein for CUCCCAGCGGGAGGAUAUGGUGCCUUGUUGGUGCUAGAAGGUCCAACAUGAGGAUCACCCAUGUGGGAGUGGUUGAGAGACCUC [SS NG10LRO12] (Eterna round: R96, puzzle: Same State NG 1) , please?
Outgoing: 218
